Each recorded value in this set is attributed to paper PMC2756588.

target desc: T1, Bbc1, P47068
T1 sequence (P47068 1-78, looked up): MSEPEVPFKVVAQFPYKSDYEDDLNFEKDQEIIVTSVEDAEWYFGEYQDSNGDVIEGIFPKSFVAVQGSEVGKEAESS
procedure details: SPOT array
condition set: median of control spots 796
So I've got a bunch of binders here, and I need their SPOT intensity values.
Give bare numbers.

Example entries and their recorded answers appear below.
What value of SPOT intensity has been reported for the following binder? "KKIRLIFTYPSTVGR"
277

What value of SPOT intensity has been reported for the following binder? "ISPPASPPPEFDFSK"
0

What value of SPOT intensity has been reported for the following binder? "DHPKGPPPPPPPDEK"
0

What value of SPOT intensity has been reported for the following binder? "RFKRHRLEFPFNESE"
36

What value of SPOT intensity has been reported for the following binder? "ILARAILTIPRVLDK"
35

The following binders each have a reported value; give each one's SPOT intensity.
1. PELAPKREAPKPPAN
2. TKHKAPPPPPPTAET

1: 7; 2: 0

The following binders each have a reported value; give each one's SPOT intensity.
1. RTIRKLPLMSLSEYF
2. RKNRAPPQRPRFNRD
3. PAPPPPPRASRPTPN
4. APERAVPILPPRNNV

3
535
0
13

The following binders each have a reported value; give each one's SPOT intensity.
1. EREKALPPIPFTTTL
2. TTNRGPPPLPPRANV
3. TPRLSLPRLPNKHHW

[0, 33, 2]
